Data origin: patent US7153525B1

assay: Solubility of fluorosurfactants in perflubron; details: PDFOA at 25° C.

- compound: "COC(=O)C(F)(F)C(F)(F)C(F)(F)C(F)(F)C(F)(F)C(F)(F)C(F)(F)F [D8, Pentadecafluoromethyloctanoate]"
  Solubility in perflubron: "soluble"
- compound: "O=C(O)C(F)(F)C(F)(F)C(F)(F)C(F)(F)C(F)(F)C(F)(F)F"
  Solubility in perflubron: "soluble"
- compound: "OCCC(F)(F)C(F)(F)C(F)(F)C(F)(F)C(F)(F)C(F)(F)F"
  Solubility in perflubron: "soluble"
